- method: FACS surface staining of BW transfectants
- cond: glycan lost; control: WT Ncr1 zeta
recorded_endpoint: expression_or_secretion

>>> recorded_value("Ncr1: Ncr1 T222 225A (protein) parent chain: MLPTLTALLCLGLCLSQRINTEKETLPKPIIWAKPSIMVTNGNSVNIWCQGAQSASEYQLYFEGSFFALERPKPSRSMNKVRFFISQMTSHTAGIYTCFYQSGELWSKSSNPLKLVVTGLYDTPNLWVYPRPEVTLGENVTFFCQLKTATSKFFLLKERGSNHIQNKYGNIQAEFPMGPVTRAHRGTYRCFGSYNDYAWSFPSEPVTLLITGGVENSSLAPTDPTSSLDYWEFDLSTNESGLQKDSAFWDHTTQNLIRIGLACIILITLVWLLTEDWLSKRKDHEEANRLTNWECRRRWRMQHYFEEEQRNAISMMELKATPGAL")
"no change"
>>> recorded_value("Ncr1: Ncr1 T222A (protein) parent chain: MLPTLTALLCLGLCLSQRINTEKETLPKPIIWAKPSIMVTNGNSVNIWCQGAQSASEYQLYFEGSFFALERPKPSRSMNKVRFFISQMTSHTAGIYTCFYQSGELWSKSSNPLKLVVTGLYDTPNLWVYPRPEVTLGENVTFFCQLKTATSKFFLLKERGSNHIQNKYGNIQAEFPMGPVTRAHRGTYRCFGSYNDYAWSFPSEPVTLLITGGVENSSLAPTDPTSSLDYWEFDLSTNESGLQKDSAFWDHTTQNLIRIGLACIILITLVWLLTEDWLSKRKDHEEANRLTNWECRRRWRMQHYFEEEQRNAISMMELKATPGAL")
"no change"
>>> recorded_value("Ncr1: Ncr1 T225A (protein) parent chain: MLPTLTALLCLGLCLSQRINTEKETLPKPIIWAKPSIMVTNGNSVNIWCQGAQSASEYQLYFEGSFFALERPKPSRSMNKVRFFISQMTSHTAGIYTCFYQSGELWSKSSNPLKLVVTGLYDTPNLWVYPRPEVTLGENVTFFCQLKTATSKFFLLKERGSNHIQNKYGNIQAEFPMGPVTRAHRGTYRCFGSYNDYAWSFPSEPVTLLITGGVENSSLAPTDPTSSLDYWEFDLSTNESGLQKDSAFWDHTTQNLIRIGLACIILITLVWLLTEDWLSKRKDHEEANRLTNWECRRRWRMQHYFEEEQRNAISMMELKATPGAL")
"no change"
